- systemName: BTK (Homo sapiens)
- Sequence (Q06187 whole entry): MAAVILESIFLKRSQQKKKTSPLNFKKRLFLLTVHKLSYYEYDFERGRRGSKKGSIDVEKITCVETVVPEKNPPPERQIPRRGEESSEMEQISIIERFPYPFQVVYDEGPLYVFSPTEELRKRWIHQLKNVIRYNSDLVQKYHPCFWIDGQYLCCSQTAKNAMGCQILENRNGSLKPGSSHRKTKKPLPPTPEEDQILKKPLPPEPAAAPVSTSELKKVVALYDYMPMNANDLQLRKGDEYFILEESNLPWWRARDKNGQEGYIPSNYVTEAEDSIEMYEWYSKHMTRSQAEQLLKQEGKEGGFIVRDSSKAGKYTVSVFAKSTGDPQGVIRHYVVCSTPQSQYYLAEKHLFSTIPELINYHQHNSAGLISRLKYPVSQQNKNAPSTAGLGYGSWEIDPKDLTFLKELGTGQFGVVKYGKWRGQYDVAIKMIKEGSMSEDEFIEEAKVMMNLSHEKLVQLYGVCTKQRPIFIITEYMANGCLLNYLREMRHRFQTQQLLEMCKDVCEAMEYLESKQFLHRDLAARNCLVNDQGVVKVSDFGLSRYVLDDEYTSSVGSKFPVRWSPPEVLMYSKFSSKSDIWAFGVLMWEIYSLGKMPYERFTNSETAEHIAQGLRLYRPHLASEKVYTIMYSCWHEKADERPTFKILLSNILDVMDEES
- assayProtocol: Degradation of BTK protein in Namalwa cells (Western blot; DC50, Dmax)
A collection of compounds and their measured Dmax

Here's what some known entries look like.
{"columns": ["compound", "Dmax"],
 "data": [
  ["NC(=O)c1c(-c2ccc(Oc3ccccc3)cc2)nn2c1NCCC2C1CCN(CC2CCN(CCN3CCC(c4ccc5c(c4)C(=O)N(C4CCC(=O)NC4=O)C5=O)CC3)CC2)CC1 (stereo not drawn)", "> 75%"],
  ["NC(=O)c1c(-c2ccc(Oc3ccccc3)cc2)nn2c1NCC[C@H]2C1CCN(C2CCN(C(=O)N3CCN(c4ccc5c(c4)CN(C4CCC(=O)NC4=O)C5=O)CC3)CC2)CC1 (stereo partly drawn)", "> 50%"]
]}

Next up:
Value lookup for Dmax; key = Nc1ncnc2c1c(-c1ccc(Oc3ccccc3)cc1)nn2C1CCN(C2CCN(C(=O)N3CCN(C4CCN(c5ccc6c(c5)CN(C5CCC(=O)NC5=O)C6=O)CC4)CC3)CC2)CC1 (stereo not drawn)
> 75%

---

- systemName: BTK (Homo sapiens)
- assayProtocol: Degradation of BTK protein in Namalwa cells (Western blot; DC50, Dmax)
- conditionDescription: read-out: DC50 (BTK degradation); concentration giving 50% reduction of BTK expression level; cell line not given
// reported DC50 per item

{"columns": ["molecule", "property", "valueReported"],
 "data": [
  ["NC1=NC=NC2C1C(c1ccc(Oc3ccccc3)cc1)=NN2C1CCCN(C2CN(C(=O)N3CC(C4CN(c5ccc6c(c5)C(=O)N(C5CCC(=O)NC5=O)C6=O)C4)C3)C2)C1 (centres unmarked) [Compound 501]", "DC50", "10 to 50 nM"],
  ["NC(=O)c1c(-c2ccc(Oc3ccccc3)cc2)nn2c1NCC[C@H]2C1CCN(CC2CCN(C(=O)N3CCC(CN4CCC(c5ccc6c(c5)C(=O)N(C5CCC(=O)NC5=O)C6=O)CC4)CC3)CC2)CC1 (some centres unmarked) [Compound 415]", "DC50", "10 to 50 nM"],
  ["NC1=NC=NC2C1C(c1ccc(Oc3ccccc3)cc1)=NN2[C@@H]1CCCN(C(=O)N2CC(C3CN(c4ccc5c(c4)C(=O)N(C4CCC(=O)NC4=O)C5=O)C3)C2)C1 (some centres unmarked) [Compound 497]", "DC50", "10 to 50 nM"],
  ["Nc1ncnc2c1c(-c1ccc(Oc3ccccc3)cc1)nn2C1CCN(CCN2CCN(CCSc3ccc4c(c3)CN(C3CCC(=O)NC3=O)C4=O)CC2)CC1 (centres unmarked) [Compound 466]", "DC50", "> 50 nM"]
]}

Value lookup for DC50; key = Nc1ncnc2c1c(-c1ccc(Oc3ccccc3)cc1)nn2C1CCN(CC2CCN(CC3CN(c4ccc5c(c4)CN(C4CCC(=O)NC4=O)C5=O)C3)C2)CC1 (centres unmarked) [Compound 424]
10 to 50 nM

---

- systemName: BTK (Homo sapiens)
- assayProtocol: Degradation of BTK protein in Namalwa cells (Western blot; DC50, Dmax)
- conditionDescription: read-out: Dmax (BTK degradation)
property: Dmax

Study these solved cases before continuing.
{"columns": ["molecule", "property", "valueReported"],
 "data": [
  ["Nc1ncnc2c1c(-c1ccc(Oc3ccccc3)cc1)nn2C1CCN(CC2CCN(CC3CN(CC4CN(c5ccc6c(c5)C(=O)N(C5CCC(=O)NC5=O)C6=O)C4)C3)C2)CC1 (stereo not shown)", "Dmax", "> 90%"],
  ["Nc1ncnc2c1c(-c1ccc(Oc3ccccc3)cc1)nn2C1CCN(CC2CCN(CC3CCN(c4ccc(N5CCC(=O)NC5=O)cc4)CC3)CC2)CC1", "Dmax", "> 90%"],
  ["Nc1ncnc2c1c(-c1ccc(Oc3ccccc3)cc1)nn2C1CCN(C[C@@H]2CCN(CC3CCN(c4ccc5c(c4)C(=O)N(C4CCC(=O)NC4=O)C5=O)CC3)C2)CC1 (stereo partly shown) [Compound 445b]", "Dmax", "> 90%"],
  ["Nc1ncnc2c1c(-c1ccc(Oc3ccccc3)cc1)nn2C1CCN(C(=O)N2CC(N3CCN(c4ccc5c(c4)CN(C4CCC(=O)NC4=O)C5=O)CC3)C2)CC1 (stereo not shown)", "Dmax", "> 90%"]
]}

Query (molecule): Nc1ncnc2c1c(-c1ccc(Oc3ccccc3)cc1)nn2C1CCN(CCCC#Cc2ccc(N3CCC(=O)NC3=O)cc2)CC1 ; field requested: Dmax
> 50%

What would you report for Nc1ncnc2c1c(-c1ccc(Oc3ccccc3)cc1)nn2C1CCN(C2CCN(CCCCC#Cc3ccc(N4CCC(=O)NC4=O)cc3)CC2)CC1 ?
> 50%

Also NC(=O)c1c(-c2ccc(Oc3ccccc3)cc2)nn2c1NCC[C@H]2C1CCN(C2CCN(C(=O)N3CCC(CN4CCC(c5ccc6c(c5)CN(C5CCC(=O)NC5=O)C6=O)CC4)CC3)CC2)CC1 (stereo partly shown) ?
> 75%

Param item: Nc1ncnc2c1c(-c1ccc(Oc3ccccc3)cc1)nn2C1CCN(CC2CN(CC3CCN(c4ccc5c(c4)C(=O)N(C4CCC(=O)NC4=O)C5=O)C3)C2)CC1 (stereo not shown)
> 90%

Here is the next molecule: Nc1ncnc2c1c(-c1ccc(Oc3ccccc3)cc1)nn2C1CCN(CCCN2CCC(CN3CCN(c4ccc(N5CCC(=O)NC5=O)cc4)CC3)CC2)CC1
> 90%

Again, but for Nc1ncnc2c1c(-c1ccc(Oc3ccccc3)cc1)nn2C1CCN(CC2CCN(CCCN3CCN(c4ccc(N5CCC(=O)NC5=O)cc4)CC3)CC2)CC1
> 90%

Try the molecule Nc1ncnc2c1c(-c1ccc(Oc3ccccc3)cc1)nn2C1CCN(CC2CC(N3CCN(c4ccc5c(c4)C(=O)N(C4CCC(=O)NC4=O)C5=O)CC3)C2)CC1 (stereo not shown)
> 90%

Proceed to NC1=NC=NC2C1C(c1ccc(Oc3ccccc3)cc1)=NN2C1CCN(C(=O)N2CC(C3CN(c4ccc5c(c4)C(=O)N(C4CCC(=O)NC4=O)C5=O)C3)C2)CC1 (stereo not shown)
> 90%

Field entry: Nc1ncnc2c1c(-c1ccc(Oc3ccccc3)cc1)nn2C1CCN([C@H]2CCN(CC3CCN(c4ccc5c(c4)C(=O)N(C4CCC(=O)NC4=O)C5=O)CC3)C2)CC1 (stereo partly shown) [Compound 449a]
> 90%

What about Nc1ncnc2c1c(-c1ccc(Oc3ccccc3)cc1)nn2C1CCN(C[C@H]2CCN(CC3CN(c4ccc5c(c4)C(=O)N(C4CCC(=O)NC4=O)C5=O)C3)C2)CC1 (stereo partly shown) [Compound 423a] ?
> 90%

Would you kindly repeat that for Nc1ncnc2c1c(-c1ccc(Oc3ccccc3)cc1)nn2C1CCN(CCN2CCC(CN3CCN(c4ccc(NC5CCC(=O)NC5=O)cc4)CC3)CC2)CC1 (stereo not shown) ?
> 90%

Nc1ncnc2c1c(-c1ccc(Oc3ccccc3)cc1)nn2C1CCN(C(=O)N2CC(N3CCN(c4ccc5c(c4)CN([C@H]4CCC(=O)NC4=O)C5=O)CC3)C2)CC1 ?
> 90%

Next entry: Nc1ncnc2c1c(-c1ccc(Oc3ccccc3)cc1)nn2C1CCN(C2CCN(CCCC#Cc3ccc(N4CCC(=O)NC4=O)cc3)C2)CC1 (stereo not shown)
> 50%

Same thing, different molecule: Nc1ncnc2c1c(-c1ccc(Oc3ccccc3)cc1)nn2[C@@H]1CCCN(C2CCN(CC3CCN(c4ccc(N5CCC(=O)NC5=O)cc4)CC3)CC2)C1
> 75%

Would you mind doing Nc1ncnc2c1c(-c1ccc(Oc3ccccc3)cc1)nn2C1CCN(CCN2CC(CN3CCN(c4ccc5c(c4)CN(C4CCC(=O)NC4=O)C5=O)CC3)C2)CC1 (stereo not shown) as well?
> 50%

---

- systemName: BTK (Homo sapiens)
- assayProtocol: BTK degradation, DC50 and Dmax of Table 1 (cell line not given)
- Format: cell-based
- Set-up: endogenous in cells
- conditionDescription: concentration giving 50% reduction of BTK expression level
property: DC50

{"columns": ["molecule", "DC50"],
 "data": [
  ["Nc1ncnc2c1c(-c1ccc(Oc3ccccc3)cc1)nn2[C@@H]1CCCN(C(=O)N2CCC(c3ccc4c(c3)C(=O)N(C3CCC(=O)NC3=O)C4=O)CC2)C1 (some centres unmarked) [Compound 47]", "> 50 nM"]
]}

Quick check: DC50 on BTK (Homo sapiens), item Nc1ncnc2c1c(-c1ccc(Oc3ccccc3)cc1)nn2[C@@H]1CCCN(C(=O)N2CCN(CCCN3CCN(c4ccc5c(c4)C(=O)N(C4CCC(=O)NC4=O)C5=O)CC3)CC2)C1 (some centres unmarked) [Compound 107] ?
> 50 nM

Also Nc1ncnc2c1c(-c1ccc(Oc3ccccc3)cc1)nn2[C@@H]1CCCN(CC2CCN(CC3CCN(c4ccc5c(c4)CN(C4CCC(=O)NC4=O)C5=O)CC3)CC2)C1 (some centres unmarked) [Compound 130] ?
10 to 50 nM

And for Nc1ncnc2c1c(-c1ccc(Oc3ccccc3)cc1)nn2[C@@H]1CCCN(C2CCN(C(=O)N3CCC(CCCN4CCN(c5ccc6c(c5)CN(C5CCC(=O)NC5=O)C6=O)CC4)CC3)CC2)C1 (some centres unmarked) [Compound 194] ?
10 to 50 nM

Check Nc1ncnc2c1c(-c1ccc(Oc3ccccc3)cc1)nn2[C@@H]1CCCN(C2CCN(CCN3CCN(c4ccc5c(c4)CN(C4CCC(=O)NC4=O)C5=O)CC3)CC2)C1 (some centres unmarked) [Compound 148] too.
10 to 50 nM
